biological target: human GLP1-R (Homo sapiens); assay: GLP1-R internalization assay in HEK293 cells; type: cell-based; settings: HEK293 cells expressing SNAP-GLP-1R; read-out: GLP1R Internalization EC50
Sequence (P43220 24-463): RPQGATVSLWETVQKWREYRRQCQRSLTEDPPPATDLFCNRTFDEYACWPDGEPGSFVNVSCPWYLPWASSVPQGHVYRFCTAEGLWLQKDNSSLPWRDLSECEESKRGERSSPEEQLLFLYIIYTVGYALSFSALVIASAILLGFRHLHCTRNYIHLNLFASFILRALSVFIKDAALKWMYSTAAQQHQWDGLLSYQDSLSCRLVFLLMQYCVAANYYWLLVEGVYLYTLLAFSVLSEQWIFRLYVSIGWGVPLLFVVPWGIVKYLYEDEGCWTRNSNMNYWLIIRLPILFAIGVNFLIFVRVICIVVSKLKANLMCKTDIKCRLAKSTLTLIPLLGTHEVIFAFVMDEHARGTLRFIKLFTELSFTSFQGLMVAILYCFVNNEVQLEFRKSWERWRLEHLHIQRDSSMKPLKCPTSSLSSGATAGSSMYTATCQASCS
Starred links: 1 amine or outer side, 2 acyl side, 3 side chain; linkers in the order of their positions; H or OH if unused. Non-standard residues stand in square brackets, D forms with d. Groups on a side chain read outwards from the residue. No end group written: not given here. *: point of attachment. C20 diacid = O=C(O)CCCCCCCCCCCCCCCCCCC(=O)*; C18 diacid = O=C(O)CCCCCCCCCCCCCCCCC(=O)*; γGlu = O=C(O)[C@H](CCC(=O)[*:2])N[*:1]; αMe4Pal = C[C@](N)(Cc1ccncc1)C(=O)O; 4Pal = N[C@@H](Cc1ccncc1)C(=O)O; αMeL = CC(C)C[C@](C)(N)C(=O)O; Orn = NCCC[C@H](N)C(=O)O; AEEA = NCCOCCOCC(=O)O; Aib = CC(C)(N)C(=O)O
Each entry below carries its reported EC50.
Respond with the bare value in nM.

SUBSTANCE: H-Y[Aib]QGTFTSD[4Pal]S[Orn][αMeL]LDKK([AEEA-γGlu-C18 diacid])AQ[αMe4Pal]AFIEYLIE[Aib]GESSGAPPPSGE-NH2 [Example 222]
UNITS SYMBOL: nM
EC50: 34.6

Okay, next one:
For human GLP1-R (Homo sapiens), give the measured EC50 of the entry Y[Aib]QGTFTSDFSK[αMeL]LDKK([AEEA-γGlu-C20 diacid])AQ[Aib]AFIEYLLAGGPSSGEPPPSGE-NH2 [Example 2] 49.5

Values compiled from patent US20240270821A1.
